Assign EC50 to each entry below.
# STUDY_SYSTEM: CFTR (Homo sapiens, UniProt P13569, DEL508-508)
# Construct: endogenous in cells; host or cells: primary human bronchial epithelial cells from CF subjects (F508del/MF-HBE), differentiated at air-liquid interface
# Sequence (P13569 with tags, fused parts or gaps DEL508-508): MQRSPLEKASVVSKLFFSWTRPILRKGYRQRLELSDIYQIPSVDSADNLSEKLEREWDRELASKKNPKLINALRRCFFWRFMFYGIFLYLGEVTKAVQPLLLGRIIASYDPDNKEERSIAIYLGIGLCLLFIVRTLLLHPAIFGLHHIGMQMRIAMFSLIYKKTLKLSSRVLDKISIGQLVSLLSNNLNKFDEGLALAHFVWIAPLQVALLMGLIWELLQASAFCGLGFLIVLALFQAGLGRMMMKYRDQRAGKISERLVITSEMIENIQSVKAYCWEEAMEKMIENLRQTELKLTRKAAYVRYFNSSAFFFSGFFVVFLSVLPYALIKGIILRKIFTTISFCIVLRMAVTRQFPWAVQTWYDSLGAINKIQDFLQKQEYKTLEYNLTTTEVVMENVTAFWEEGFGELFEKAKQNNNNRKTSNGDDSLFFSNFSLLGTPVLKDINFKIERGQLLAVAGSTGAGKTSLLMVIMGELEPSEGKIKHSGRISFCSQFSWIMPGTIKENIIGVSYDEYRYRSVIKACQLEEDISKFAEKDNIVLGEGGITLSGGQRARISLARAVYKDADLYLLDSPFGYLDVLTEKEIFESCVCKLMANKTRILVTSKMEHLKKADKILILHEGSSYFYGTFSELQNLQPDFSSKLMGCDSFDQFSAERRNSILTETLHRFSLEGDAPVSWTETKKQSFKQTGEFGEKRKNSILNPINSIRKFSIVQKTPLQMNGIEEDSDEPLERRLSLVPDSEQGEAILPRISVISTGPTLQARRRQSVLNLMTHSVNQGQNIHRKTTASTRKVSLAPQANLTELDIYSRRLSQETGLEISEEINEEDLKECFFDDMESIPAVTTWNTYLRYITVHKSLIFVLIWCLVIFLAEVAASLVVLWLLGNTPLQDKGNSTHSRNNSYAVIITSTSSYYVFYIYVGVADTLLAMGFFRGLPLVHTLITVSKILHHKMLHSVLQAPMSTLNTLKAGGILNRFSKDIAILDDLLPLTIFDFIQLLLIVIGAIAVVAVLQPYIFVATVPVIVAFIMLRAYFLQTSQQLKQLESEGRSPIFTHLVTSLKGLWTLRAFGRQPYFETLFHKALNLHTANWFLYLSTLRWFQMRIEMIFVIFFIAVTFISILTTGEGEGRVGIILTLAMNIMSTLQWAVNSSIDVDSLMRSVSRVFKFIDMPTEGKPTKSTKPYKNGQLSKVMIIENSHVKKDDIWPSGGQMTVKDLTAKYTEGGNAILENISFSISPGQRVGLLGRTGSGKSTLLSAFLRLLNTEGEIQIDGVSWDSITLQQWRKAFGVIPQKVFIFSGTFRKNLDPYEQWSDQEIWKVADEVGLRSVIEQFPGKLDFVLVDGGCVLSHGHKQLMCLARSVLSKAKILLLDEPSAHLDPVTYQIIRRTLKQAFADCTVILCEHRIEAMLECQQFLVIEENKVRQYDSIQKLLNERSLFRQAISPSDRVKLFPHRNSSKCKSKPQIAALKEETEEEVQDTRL
# ASSAY_DETAILS: HBE assay: Ussing chamber assay of CFTR-mediated short-circuit currents
# Assay type: cell-based
# MEASUREMENT_CONDITIONS: HBE EC50 (μM), Table 11

Query the reported EC50 for CFTR (Homo sapiens, UniProt P13569, DEL508-508); item: Cc1cccc(C)c1-c1cc2nc(n1)NS(=O)(=O)c1cccc(c1)C(=O)N(Cc1ncc(N3CC4CC(C4)C3)cn1)[C@H](CC(C)(C)C)CO2 [Compound 613]
< 1 µM

Next:
Query the reported EC50 for CFTR (Homo sapiens, UniProt P13569, DEL508-508); item: Cc1cccc(C)c1-c1cc2nc(n1)NS(=O)(=O)c1cccc(c1)C(=O)N(Cc1cccc(N3CCC[C@H]3C)n1)[C@H](CC(C)(C)C)CO2 [Compound 132]
< 1 µM

---

# STUDY_SYSTEM: UniProtKB P13569
# ASSAY_DETAILS: Membrane potential dye, Enteroid Assay B
# Assay type: cell-based
# MEASUREMENT_CONDITIONS: Table 9
PROPERTY_MEASURED: Ent. B Max Activity (%)

Consider the molecule Cc1cccc(C)c1-c1cc2nc(n1)NS(=O)(=O)c1cccc(c1)C(=O)N(CC13CC(C(C)(C)O)(C1)C3)[C@H](CC(C)(C)C)CO2 [Compound 69] and give its measured Ent. B Max Activity (%).
+++ (+++ is >600%)

Consider the molecule Cc1cccc(C)c1-c1cc2nc(n1)NS(=O)(=O)c1cccc(c1)C(=O)N(Cc1ncc(Cl)cn1)[C@H](CC(C)(C)C)CO2 [Compound 805] and give its measured Ent. B Max Activity (%).
+++ (+++ is >600%)

Consider the molecule Cc1cccc(C)c1-c1cc2nc(n1)NS(=O)(=O)c1cccc(c1)C(=O)N(Cc1ccc(-c3csc(OC(C)C)n3)cc1)[C@H](CC(C)(C)C)CO2 [Compound 318] and give its measured Ent. B Max Activity (%).
+++ (+++ is >600%)

Consider the molecule Cc1cccc(C)c1-c1cc2nc(n1)NS(=O)(=O)c1cccc(c1)C(=O)N(CCC1(C(F)(F)F)CC1)[C@@H]1CN(C3CC4(CCCCC4)C3)C[C@H]1O2 [Compound 1190] and give its measured Ent. B Max Activity (%).
++ (++ is 30-60%)

Consider the molecule Cc1cccc(C)c1-c1cc2nc(n1)NS(=O)(=O)c1cccc(c1)C(=O)N(Cc1ccc3c(c1)C(=O)NC3)[C@H](CC(C)(C)C)CO2 [Compound 792] and give its measured Ent. B Max Activity (%).
+++ (+++ is >600%)

Consider the molecule Cc1cccc(C)c1-c1cc2nc(n1)NS(=O)(=O)c1cccc(c1)C(=O)N(CC1CC(O)(Cc3ccccc3)C1)[C@H](CC(C)(C)C)CO2 (single isomer, unassigned) [Compound 68] and give its measured Ent. B Max Activity (%).
+++ (+++ is >600%)

// each listed molecule needs a value for Ent. B Max Activity (%)
1. Cc1cccc(C)c1-c1cc2nc(n1)NS(=O)(=O)c1cccc(c1)C(=O)N(Cc1ccc(N)nc1)[C@H](CC(C)(C)C)CO2 [Compound 387]
2. CCN1C(=O)c2cccc(c2)S(=O)(=O)Nc2nc(cc(-c3c(C)cccc3C)n2)O[C@@H]2CN(C3CC4(CCCC4)C3)C[C@H]21 [Compound 1192]
3. Cc1cccc(C)c1-c1cc2nc(n1)NS(=O)(=O)c1cccc(c1)C(=O)N(Cc1ccn3nccc3c1)[C@H](CC(C)(C)C)CO2 [Compound 791]

+++ (+++ is >600%)
++ (++ is 30-60%)
+++ (+++ is >600%)

// each listed molecule needs a value for Ent. B Max Activity (%)
1. Cc1cccc(C)c1-c1cc2nc(n1)NSc1cccc(c1)C(=O)N(Cc1ccc(C(C)(C)O)cc1)[C@H](CC(C)(C)C(F)(F)F)CO2 [Compound 321]
2. Cc1cccc(C)c1-c1cc2nc(n1)NS(=O)(=O)c1cccc(c1)C(=O)N(CC1CCC(C(C)(C)O)CC1)[C@H](CC(C)(C)C)CO2 (stereo partly drawn) [Compound 797]
3. Cc1cccc(C)c1-c1cc2nc(n1)NS(=O)(=O)c1cccc(c1)C(=O)N(Cc1ccc(S(F)(F)(F)(F)F)cc1)[C@H](CC(C)(C)C)CO2 [Compound 801]
4. COC(=O)c1ccc(CCN2C(=O)c3cccc(c3)S(=O)(=O)Nc3nc(cc(-c4c(C)cccc4C)n3)OC[C@H]2CC(C)(C)C)cc1 [Compound 1081]
5. CC(=O)Nc1cccc(CN2C(=O)c3cccc(c3)S(=O)(=O)Nc3nc(cc(-c4c(C)cccc4C)n3)OC[C@H]2CC(C)(C)C)n1 [Compound 391]
6. Cc1cccc(C)c1-c1cc2nc(n1)NS(=O)(=O)c1cccc(c1)C(=O)N(CC13CCC(O)(CC1)CC3)[C@H](CC(C)(C)C)CO2 [Compound 800]
7. Cc1cccc(C)c1-c1cc2nc(n1)NS(=O)(=O)c1cccc(c1)C(=O)N(Cc1nc3ccccc3o1)[C@H](CC(C)(C)C)CO2 [Compound 803]
8. Cc1cccc(C)c1-c1cc2nc(n1)NS(=O)(=O)c1cccc(c1)C(=O)N(Cc1cccc(N)n1)[C@H](CC(C)(C)C)CO2 [Compound 125]

1: +++ (+++ is >600%); 2: +++ (+++ is >600%); 3: +++ (+++ is >600%); 4: +++ (+++ is >600%); 5: +++ (+++ is >600%); 6: +++ (+++ is >600%); 7: +++ (+++ is >600%); 8: +++ (+++ is >600%)

// each listed molecule needs a value for Ent. B Max Activity (%)
1. Cc1cccc(C)c1-c1cc2nc(n1)NS(=O)(=O)c1cccc(c1)C(=O)N(Cc1ccc(-c3cn[nH]c3)cc1)[C@H](CC(C)(C)C)CO2 [Compound 317]
2. Cc1cccc(C)c1-c1cc2nc(n1)NS(=O)(=O)c1cccc(c1)C(=O)N(Cc1ncc(C(C)C)cn1)[C@H](CC(C)(C)C)CO2 [Compound 1077]
3. CC(=O)Nc1cccnc1CN1C(=O)c2cccc(c2)S(=O)(=O)Nc2nc(cc(-c3c(C)cccc3C)n2)OC[C@H]1CC(C)(C)C [Compound 393]
4. C=C(C)c1cnc(CN2C(=O)c3cccc(c3)S(=O)(=O)Nc3nc(cc(-c4c(C)cccc4C)n3)OC[C@H]2CC(C)(C)C)nc1 [Compound 1078]
5. Cc1cccc(C)c1-c1cc2nc(n1)NS(=O)(=O)c1cccc(c1)C(=O)N(Cc1ccc(CC(N)=O)cc1)[C@H](CC(C)(C)C)CO2 [Compound 847]

1: +++ (+++ is >600%); 2: +++ (+++ is >600%); 3: +++ (+++ is >600%); 4: +++ (+++ is >600%); 5: +++ (+++ is >600%)

// each listed molecule needs a value for Ent. B Max Activity (%)
1. Cc1cccc(C)c1-c1cc2nc(n1)NS(=O)(=O)c1cccc(c1)C(=O)N(Cc1ccc3c(c1)CC(C)(C)O3)[C@H](CC(C)(C)C)CO2 [Compound 798]
2. Cc1cccc(C)c1-c1cc2nc(n1)NS(=O)(=O)c1cccc(c1)C(=O)N(Cc1ccnc(N)c1)[C@H](CC(C)(C)C)CO2 [Compound 61]

1. +++ (+++ is >600%)
2. +++ (+++ is >600%)
